The following compounds are listed with their measured IC50 values.
# TARGET OR SYSTEM: Carboxylic ester hydrolase (Sus scrofa, UniProt A0A286ZKB1)
# Sequence (A0A286ZKB1 whole entry): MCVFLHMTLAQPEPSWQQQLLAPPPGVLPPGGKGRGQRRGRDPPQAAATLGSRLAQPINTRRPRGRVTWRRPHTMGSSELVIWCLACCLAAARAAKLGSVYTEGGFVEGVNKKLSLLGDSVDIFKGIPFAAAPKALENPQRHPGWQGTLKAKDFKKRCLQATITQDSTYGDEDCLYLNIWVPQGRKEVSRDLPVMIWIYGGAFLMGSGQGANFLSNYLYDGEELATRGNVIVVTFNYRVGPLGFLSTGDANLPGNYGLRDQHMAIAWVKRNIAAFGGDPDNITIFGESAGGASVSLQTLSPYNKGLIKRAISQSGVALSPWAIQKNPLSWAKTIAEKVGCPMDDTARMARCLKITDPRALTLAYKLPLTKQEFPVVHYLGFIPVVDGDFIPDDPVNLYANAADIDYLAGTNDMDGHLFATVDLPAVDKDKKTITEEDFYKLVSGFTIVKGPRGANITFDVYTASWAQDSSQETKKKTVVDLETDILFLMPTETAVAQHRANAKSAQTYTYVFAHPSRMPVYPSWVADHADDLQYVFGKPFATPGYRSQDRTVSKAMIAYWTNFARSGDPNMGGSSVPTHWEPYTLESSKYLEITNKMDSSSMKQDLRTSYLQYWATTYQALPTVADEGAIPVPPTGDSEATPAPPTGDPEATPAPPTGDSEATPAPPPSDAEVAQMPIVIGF
# TEST METHOD NOTES: Inhibition of porcine cholesterol esterase using para-nitrophenyl butyrate as substrate after 5 mins in presence of sodium taurocholate by spectrophotometric method
# CONDITION INFO: read-out: IC50
RECORDED METRIC: IC50 (µM)

compound_structure=O=c1cc(-c2cccc(Cl)c2Cl)oc2c1ccc1ccccc12 units_label=µM observed_value=0.0109
compound_structure=O=c1cc(-c2ccc(C(F)(F)F)cc2F)oc2c1ccc1ccccc12 units_label=µM observed_value=0.039
compound_structure=O=c1cc(-c2cccc(CCl)c2)oc2c1ccc1ccccc12 units_label=µM observed_value=0.04
compound_structure=O=c1cc(-c2cc(F)cc(C(F)(F)F)c2)oc2c1ccc1ccccc12 units_label=µM observed_value=0.043
compound_structure=O=c1cc(-c2ccc(F)c(F)c2)oc2c1ccc1ccccc12 units_label=µM observed_value=0.0141
compound_structure=O=c1cc(-c2cccc(F)c2)oc2c1ccc1ccccc12 units_label=µM observed_value=0.00524
compound_structure=O=c1cc(-c2ccccc2)oc2c1ccc1ccccc12 units_label=µM observed_value=0.0478
compound_structure=O=c1cc(-c2cc(F)cc(F)c2)oc2c1ccc1ccccc12 units_label=µM observed_value=0.00078
compound_structure=O=c1cc(-c2cc([N+](=O)[O-])cc([N+](=O)[O-])c2)oc2c1ccc1ccccc12 units_label=µM observed_value=0.03
compound_structure=O=c1cc(-c2ccc(Br)cc2)oc2c1ccc1ccccc12 units_label=µM observed_value=0.0285
compound_structure=O=c1cc(-c2cccc(Cl)c2)oc2c1ccc1ccccc12 units_label=µM observed_value=0.00699
compound_structure=O=c1cc(-c2ccc(I)cc2)oc2c1ccc1ccccc12 units_label=µM observed_value=0.0341
compound_structure=O=c1cc(-c2ccc(F)cc2C(F)(F)F)oc2c1ccc1ccccc12 units_label=µM observed_value=0.0391
compound_structure=O=c1cc(-c2ccccc2I)oc2c1ccc1ccccc12 units_label=µM observed_value=0.0161
compound_structure=O=c1cc(-c2c(F)cccc2C(F)(F)F)oc2c1ccc1ccccc12 units_label=µM observed_value=0.0389
compound_structure=O=c1cc(-c2ccc(F)cc2F)oc2c1ccc1ccccc12 units_label=µM observed_value=0.00143
compound_structure=O=c1cc(-c2ccc(F)cc2)oc2c1ccc1ccccc12 units_label=µM observed_value=0.0201
compound_structure=O=c1cc(-c2cc(F)ccc2C(F)(F)F)oc2c1ccc1ccccc12 units_label=µM observed_value=0.0413
compound_structure=O=c1cc(-c2c(F)cccc2F)oc2c1ccc1ccccc12 units_label=µM observed_value=0.00199
compound_structure=O=c1cc(-c2cccc([N+](=O)[O-])c2)oc2c1ccc1ccccc12 units_label=µM observed_value=0.0251
compound_structure=O=c1cc(-c2ccccc2F)oc2c1ccc1ccccc12 units_label=µM observed_value=0.00322
compound_structure=O=c1cc(-c2ccc(F)c(C(F)(F)F)c2)oc2c1ccc1ccccc12 units_label=µM observed_value=0.043
compound_structure=O=c1cc(-c2cc(F)ccc2F)oc2c1ccc1ccccc12 units_label=µM observed_value=0.00681
compound_structure=O=c1cc(-c2ccc([N+](=O)[O-])cc2)oc2c1ccc1ccccc12 units_label=µM observed_value=0.0373
compound_structure=O=c1cc(-c2ccccc2Br)oc2c1ccc1ccccc12 units_label=µM observed_value=0.011
compound_structure=O=c1cc(-c2ccc(CCl)cc2)oc2c1ccc1ccccc12 units_label=µM observed_value=0.0392
compound_structure=O=c1cc(-c2cccc(Br)c2)oc2c1ccc1ccccc12 units_label=µM observed_value=0.0261
